target.desc: T1, human MET ECD (human, UniProt P08581 25-932)
T1 construct: range 1-932; recombinant; range as printed includes the signal peptide; also called hMET; hMET ECD
experiment.notes: ELISA, MET ECD coated, mAb 0-20 nM
As shown below, each of these binders has a reported EMAX value.

{"columns": ["binder", "output.unit", "EMAX"],
 "data": [
  ["72F8 chimeric llama-human IgG1 mAb (antibody, V domains shown, human IgG1 CH1-CH2-CH3 and human CL lambda) VH: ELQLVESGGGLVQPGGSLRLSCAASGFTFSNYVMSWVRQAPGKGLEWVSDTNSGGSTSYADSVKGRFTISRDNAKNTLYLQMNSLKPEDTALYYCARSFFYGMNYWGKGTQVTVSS VL: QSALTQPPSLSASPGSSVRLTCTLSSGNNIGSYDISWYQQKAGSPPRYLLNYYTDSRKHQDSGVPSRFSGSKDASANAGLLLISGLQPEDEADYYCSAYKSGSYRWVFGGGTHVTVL", "OD450 AU", 2.78],
  ["76H10 chimeric llama-human IgG1 mAb (antibody, V domains shown, human IgG1 CH1-CH2-CH3 and human CL lambda) VH: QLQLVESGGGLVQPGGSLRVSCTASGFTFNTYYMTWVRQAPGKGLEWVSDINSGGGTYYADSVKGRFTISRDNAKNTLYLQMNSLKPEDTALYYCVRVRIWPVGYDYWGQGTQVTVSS VL: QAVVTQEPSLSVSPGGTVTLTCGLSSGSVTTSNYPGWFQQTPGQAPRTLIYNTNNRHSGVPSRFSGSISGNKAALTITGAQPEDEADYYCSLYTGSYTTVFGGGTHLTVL", "OD450 AU", 2.67],
  ["71A3 chimeric llama-human IgG1 mAb (antibody, V domains shown, human IgG1 CH1-CH2-CH3 and human CL lambda) VH: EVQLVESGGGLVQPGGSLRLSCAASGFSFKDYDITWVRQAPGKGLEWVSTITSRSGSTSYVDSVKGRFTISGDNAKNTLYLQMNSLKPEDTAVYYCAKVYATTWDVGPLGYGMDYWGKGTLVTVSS VL: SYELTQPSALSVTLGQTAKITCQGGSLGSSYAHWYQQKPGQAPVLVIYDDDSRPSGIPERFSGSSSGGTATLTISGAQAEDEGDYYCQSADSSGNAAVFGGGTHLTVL", "OD450 AU", 2.4],
  ["71D4 chimeric llama-human IgG1 mAb (antibody, V domains shown, human IgG1 CH1-CH2-CH3 and human CL lambda) VH: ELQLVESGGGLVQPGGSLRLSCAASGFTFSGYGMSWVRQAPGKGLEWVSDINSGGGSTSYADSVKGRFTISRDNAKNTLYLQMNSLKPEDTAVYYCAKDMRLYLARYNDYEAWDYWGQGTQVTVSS VL: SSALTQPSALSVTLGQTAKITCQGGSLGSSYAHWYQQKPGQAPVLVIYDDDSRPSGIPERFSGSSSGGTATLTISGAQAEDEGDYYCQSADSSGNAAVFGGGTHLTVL", "OD450 AU", 1.43]
]}
